Please provide measured protein stability index for the entries that follow.
B1: TRIM29 (parent)
chain: FAEKGELRKSIFSESRKPTVSIME

Variants of: B1
Experiment: protein stability index of a GFP-peptide fusion (GPS, HEK-293T) (PSI 1-6); higher = more stable;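 note: lentivirally expressed fusions sorted by FACS into six bins by GFP to DsRed ratio, PSI derived from sequencing read proportions per bin multiplied by bin number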
Conditions: c terminus: a fixed tail appended
Give bare numbers.

Could you report protein stability index for every entry in the following list?
1. FAELGELRKSIFSESRKPTVSIME
2. FAEKGELRKSIFSERRKPTVSIME

Out:
2.38
1.3
